Source of measurements: paper PMC9537541

# target.system: UniProtKB P00915
# Sequence (P00915 whole entry): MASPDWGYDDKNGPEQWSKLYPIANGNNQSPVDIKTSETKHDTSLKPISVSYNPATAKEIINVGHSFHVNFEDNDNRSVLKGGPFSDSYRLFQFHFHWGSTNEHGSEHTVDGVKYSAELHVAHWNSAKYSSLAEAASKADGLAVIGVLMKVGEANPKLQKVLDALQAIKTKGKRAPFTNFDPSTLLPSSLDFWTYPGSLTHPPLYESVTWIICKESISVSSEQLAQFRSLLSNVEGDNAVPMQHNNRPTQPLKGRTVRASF
Param label: returns Fulfilled when Ki < 0.6 µM, returns Not fulfilled otherwise, including exact equality.

Sample answers from the record:
compound | target.system | assigned.label
N#C/C(=C\c1cccc(F)c1)c1nc(N)nc(Nc2ccc(S(N)(=O)=O)cc2)n1 [Compound 12i] | UniProtKB P00915 | Fulfilled
NC1=NC2(CCCC2)N(c2ccc(S(=O)(=O)Nc3nccs3)cc2)C(N)=N1 [Compound 6h] | UniProtKB P00915 | Not fulfilled
Cc1ccc(/C=C(\C#N)c2nc(N)nc(Nc3ccc(S(N)(=O)=O)cc3)n2)cc1 [Compound 12g] | UniProtKB P00915 | Fulfilled

q: Determine whether this compound shows Ki lower than 0.6 µM (ties excluded): CN(C)c1ccc(/C=C(\C#N)c2nc(N)nc(Nc3ccc(S(N)(=O)=O)cc3)n2)cc1 [Compound 12d]
a: Fulfilled

q: Is 0.6 µM strictly greater than the compound's reported Ki? compound: NC1=NC2(CCCCC2)N(c2ccc(S(=O)(=O)Nc3ccccn3)cc2)C(N)=N1 [Compound 6e]
a: Not fulfilled

q: I'd appreciate it if you could check whether N#C/C(=C\c1cccc(Br)c1)c1nc(N)nc(Nc2ccc(S(N)(=O)=O)cc2)n1 [Compound 12b] has Ki smaller than 0.6 µM.
a: Not fulfilled

---

# target.system: hCA XII (Homo sapiens, UniProt O43570)
# Construct: made in house
# Sequence (O43570 25-354): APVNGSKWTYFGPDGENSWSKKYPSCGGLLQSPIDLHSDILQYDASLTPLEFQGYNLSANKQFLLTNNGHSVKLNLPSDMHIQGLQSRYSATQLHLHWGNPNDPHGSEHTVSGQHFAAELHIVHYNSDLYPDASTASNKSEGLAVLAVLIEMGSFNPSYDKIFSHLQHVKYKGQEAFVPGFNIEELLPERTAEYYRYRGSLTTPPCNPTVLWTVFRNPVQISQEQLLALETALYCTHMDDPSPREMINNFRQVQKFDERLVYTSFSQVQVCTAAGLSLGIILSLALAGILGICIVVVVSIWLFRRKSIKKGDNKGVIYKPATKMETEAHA
# method.description: stopped-flow CO2 hydrase assay, hCA XII
# Type: biochemical
# measurement.context: hCA XII over off-target hCA I
Quick list: Selectivity index (SI) I/XII per entry.
I only need the number, thanks.

Record excerpt, results attached:
compound | readout.kind | result.value
CC1(C)N=C(N)N=C(N)N1c1ccc(S(N)(=O)=O)cc1 | Selectivity index (SI) I/XII | 0.3
N#C/C(=C\c1ccc(F)cc1)c1nc(N)nc(Nc2ccc(S(N)(=O)=O)cc2)n1 [Compound 12f.] | Selectivity index (SI) I/XII | 0.1
N#C/C(=C\c1ccc2c(c1)OCO2)c1nc(N)nc(Nc2ccc(S(N)(=O)=O)cc2)n1 [Compound 12e] | Selectivity index (SI) I/XII | 0.5
CC1CCC2(CC1)N=C(N)N=C(N)N2c1ccc(S(N)(=O)=O)cc1 (centres unmarked) | Selectivity index (SI) I/XII | 0.02
CC1(C)N=C(N)N=C(Nc2ccc(S(N)(=O)=O)cc2)N1 | Selectivity index (SI) I/XII | 1.5

Consider the record given below.
q: Quick one: Selectivity index (SI) I/XII of NC1=NC2(CCCCC2)NC(Nc2ccc(S(N)(=O)=O)cc2)=N1 ?
a: 0.1

---

# target.system: hCA IX (Homo sapiens)
# Construct: made in house
# method.description: stopped-flow CO2 hydrase assay, hCA IX
# Format: biochemical
# measurement.context: stopped flow technique, mean from 3 different assays
// classify: if (Ki < 1000 nM) T else F

molecule | assigned.label
CC1(C)N=C(N)N=C(Nc2ccc(S(N)(=O)=O)cc2)N1 [Compound 7a] | T

q: I wonder whether N#C/C(=C\c1ccccc1)c1nc(N)nc(Nc2ccc(S(N)(=O)=O)cc2)n1 [Compound 12a] has Ki below 1000 nM. Can you tell?
a: F

q: Lab note: Ki threshold 1000 nM. Does this molecule come in strictly under it? CC1(C)N=C(N)N=C(N)N1c1ccc(S(=O)(=O)Nc2nccs2)cc1 [Compound 5c]
a: F

q: Input CC1CCC2(CC1)N=C(N)N=C(Nc1ccc(S(N)(=O)=O)cc1)N2 (centres unmarked) [Compound 8c] ; condition: Ki strictly below 1000 nM. Does it hold?
a: F

q: Below 1000 nM on Ki? Entry CN(C)c1ccc(/C=C(\C#N)c2nc(N)nc(Nc3ccc(S(N)(=O)=O)cc3)n2)cc1 [Compound 12d]
a: T

q: Field: below-cutoff. Rule: recorded Ki strictly less than 1000 nM. Subject: N#C/C(=C\c1ccc(F)cc1)c1nc(N)nc(Nc2ccc(S(N)(=O)=O)cc2)n1 [Compound 12f.]
a: T
